System: SW-620 colon
Assay Remarks: NCI-60 one-dose screen, 48 h (100 = growth as untreated, 0 = no growth, -100 = all killed)
Condition Details: 10 µM unless noted
About 83,000 compounds went through this panel and 20% of them were active in at least one assay; those are over-represented in the sample as a whole.
Reported Metric: growth (%)
Report the figure in % without appending any unit label.

Example results:
Molecule | Measured Number
Nc1ccc(/C=N/Nc2ccnc3c(N)cccc23)c2cccnc12 | -28.3
CCN1C(=O)N(c2ccccc2)C2NC(=S)N(/N=C/C=C/c3ccccc3)C21 (stereo not given) | 26.5
O=C1/C(=C/c2cn(-c3ccccc3)nc2-c2ccccc2)SC(=S)N1c1ccccc1 | 99.8
COc1ccc(Oc2nc(Nc3ccc(N4CCOCC4)cc3)ncc2NC(=O)c2cc(OC)cc(OC)c2)cc1 | 71.4

Now for the molecule whose growth we want.
Reported growth (SW-620 colon) for entry O=C1CCCCN1CCCCC#Cc1cccc(C#Cc2cccnc2)c1 is 101

====

Below, each entry is listed alongside its reported growth.
Tested on: MDA-MB-231 breast
Assay Remarks: NCI-60 one-dose screen, 48 h (100 = growth as untreated, 0 = no growth, -100 = all killed)
Condition Details: 10 µM
This is part of a sample that, as a whole, favours compounds with a hit. Of some 83,000 tested, about 20% had one in any assay.
Note: unit % is implicit; provide only the numeric part.

Some solved entries appear below for comparison.
Sample Smiles | Unit String | growth
CCN(Cc1ccccc1)c1ccc(/C=C2\COc3ccccc3C2=O)cc1 | % | 101
CC(=O)/C=C/c1ccc(OCc2ccc(C(C)(C)C)cc2)cc1 | % | 84.2
CC(=O)/C=C/c1ccc(N(CCO)Cc2ccc(C(C)(C)C)cc2)cc1 | % | 77.5
CC(=O)/C=C/c1ccc(N(C)Cc2ccc(C(C)(C)C)cc2)cc1 | % | 103
COc1ccc(C(=O)/C=C/c2ccc(OCc3ccc(Cl)cc3)cc2)cc1OC | % | 110

Record for O=C(/C=C/c1cccc(Oc2ccc(Cl)cc2)c1)c1ccccc1 under target or system MDA-MB-231 breast: growth reported as 113

MDA-MB-231 breast data for CC(=O)/C=C/c1ccc(OCc2ccc(Cl)cc2)cc1 ; its growth: 117

====

Test system: HCC-2998 colon
Assay Remarks: NCI-60 one-dose screen, 48 h
Condition Details: 10 µM unless noted
Protocol: Growth inhibition of the HCC-2998 human tumor cell line is measured as a screen for anti-cancer activity. Cells are grown in 96 well plates and exposed to the test compound for 48 hours. Compounds are tested at a single concentration, which is 10^-5 M for most compounds. The reported endpoint is percent growth (GI% or GIPRCNT), where numbers from 0 - 100% represent growth inhibition, and numbers from -100% - 0 represent cell death. For example, a value of 40 represents 60% growth inhibition. […]
About 83,000 compounds went through this panel and 20% of them were active in at least one assay; those are over-represented in the sample as a whole. Calls of active or inactive are those of the source. The calls were made as follows: active = growth percent below 10; inactive = the rest.
Entry note: the call must match one of T for active, F for inactive

Example results:
Molecule | Class Label
O=C1/C(=C/c2ccc(-c3cccc(C(F)(F)F)c3)o2)SC(=S)N1CCc1ccc(O)cc1 | F
CC1(Cc2ccccc2)CC2=C(C(=O)O1)C(c1ccccc1)NC(=O)N2 (stereo not given) | F
Cc1ccc2[nH]c(=S)[nH]c(=O)c2c1 | F
Clc1ccc(CNc2ccc3nc(CCC4CCCCC4)[nH]c3c2)cc1 | T
COc1cc(OC)cc(-c2ccc(-c3ccc(C(=N)N)cn3)s2)c1 | F
COc1ccc(/C=C2/C(=O)N=C3N2NC(c2ccccc2)=CN3c2ccccc2)cc1 | F
C=C1CCC2C3(C)COC(c4ccc(NC(C)=O)cc4)OC3CCC2(C)C1C/C=C1/C(=O)OCC1O (stereo not given) | F
Cc1n(Cc2ccc3ccccc3c2)c(Cl)c(Cl)[n+]1Cc1ccc2ccccc2c1 | F
COc1ccc(CN2CCc3c(Cl)nc(N)nc3C2=O)c(OC)c1 | T

Query :: Hi team, can someone confirm the assay call for COc1cc(NS(=O)(=O)C(C)C)cc(-c2cc(-c3ccc(N4CCNCC4)cc3)cnc2N)c1 ?
Result :: F
